Where a name gives a salt, the structure may show the parent alone.
Attribute measured: melting point

Completed entries (count: 2):
[in] Quick check: melting point of O=C(NCCc1csc(-c2ccc(F)c(C34CC5CC(CC(C5)C3)C4)c2)n1)c1ccccc1 (as salt: fumarate) ?
[out] 305 °C (dec.)

[in] Continue with `Br.Nc1nc(-c2ccc(C34CC5CC(CC(C5)C3)C4)cc2)cs1`
[out] 345 °C (dec.)

---
[in] Return reported melting point; argument: CC(=O)NCCc1csc(-c2ccc(C34CC5CC(CC(C5)C3)C4)cc2)n1 (as salt: fumarate)
[out] 164 to 166 °C

[in] Now this one: NCCc1csc(-c2ccc(C34CC5CC(CC(C5)C3)C4)cc2)n1 (as salt: hydrochloride)
[out] 225 °C (dec.)

[in] And for `Br.CN(C)CCc1nc(-c2ccc(C34CC5CC(CC(C5)C3)C4)cc2)cs1` ?
[out] 200 to 202 °C
